Target: 15-PGDH/HPGD (Homo sapiens, UniProt P15428)
Sequence (P15428 1-266): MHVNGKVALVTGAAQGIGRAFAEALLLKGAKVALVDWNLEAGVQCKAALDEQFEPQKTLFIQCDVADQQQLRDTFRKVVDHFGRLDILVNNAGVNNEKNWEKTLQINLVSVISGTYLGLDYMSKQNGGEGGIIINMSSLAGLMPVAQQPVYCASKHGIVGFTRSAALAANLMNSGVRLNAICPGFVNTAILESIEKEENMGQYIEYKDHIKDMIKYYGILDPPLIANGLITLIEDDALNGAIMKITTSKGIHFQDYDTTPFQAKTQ
Test: hPGDH inhibitor screening biochemical assay
Conditions: 10 nM enzyme, 15 μM Prostaglandin E2, 0.25 mM NAD, fluorescence ex/em 340/485 nm
Excerpt: A hydroxyprostaglandin dehydrogenase inhibition screening biochemical assay can be performed to assess the synthesized inhibitors provided herein. Provided herein is an exemplary biochemical assay for hPGDH inhibitor screening. […]
pIC50: −log10 of the molar value.
Listed next: entries and their corresponding pIC50.

[[record]]
compound = "O=C(O)c1ccc(-n2ncc3cc([C@H](O)C4COC4)ccc32)cc1 [Compound 120A]"
result_value = "> 7.00"

[[record]]
compound = "CCC1(OC[C@@H](O)c2cnc3c(cnn3-c3ccc(C(=O)O)cc3)c2)CC1 [Compound 93B]"
result_value = "> 7.00"

[[record]]
compound = "CC(C)CC[C@H](O)c1cnc2c(ccn2-c2ccc(C(=O)O)cc2)n1 [Compound 40A]"
result_value = "> 7.00"

[[record]]
compound = "CC(C)OCC[C@H](O)c1cnc2c(ccn2-c2cccc(-c3nnc[nH]3)c2)c1 [Compound 41A]"
result_value = "> 7.00"

[[record]]
compound = "O=C(NC[C@@H](O)c1cnc2c(cnn2-c2cccc(-c3nnc[nH]3)c2)c1)C1CC1 [Compound 39B]"
result_value = "6.00 to 7.00"

[[record]]
compound = "O=C(O)c1ccc(-n2ncc3cc([C@@H](O)COC4CCC4)cnc32)cc1 [Compound 42A]"
result_value = "> 7.00"

[[record]]
compound = "O=C(O)c1ccc(-n2ncc3cc([C@@H](O)COCC4(C(F)(F)F)CC4)cnc32)cc1 [Compound 113A]"
result_value = "6.00 to 7.00"

[[record]]
compound = "COC1([C@H](O)c2cnc3c(cnn3-c3cccc(-c4nnc[nH]4)c3)c2)CC1 [Compound 59B]"
result_value = "6.00 to 7.00"

[[record]]
compound = "O[C@@H](COC1CC1)c1cnc2c(cnn2-c2cccc(-c3nnc[nH]3)c2)c1 [Compound 37A]"
result_value = "> 7.00"

[[record]]
compound = "CC(C)(O)c1cnc2c(cnn2-c2cc(Cl)cc(-c3nnc[nH]3)c2)c1"
result_value = "≤ 6.00"


Field pIC50 (system: 15-PGDH/HPGD (Homo sapiens, UniProt P15428)) for entry C[C@H](OC1CCC1)[C@@H](O)c1cnc2c(cnn2-c2ccc(C(=O)O)cc2)c1 [Compound 108D] = > 7.00

Field pIC50 (system: 15-PGDH/HPGD (Homo sapiens, UniProt P15428)) for entry CC(C)(O)CC[C@H](O)c1cnc2c(cnn2-c2cccc(-c3nnc[nH]3)c2)c1 [Compound 56A] = > 7.00

Field pIC50 (system: 15-PGDH/HPGD (Homo sapiens, UniProt P15428)) for entry O=C(O)c1ccc(-n2ccc3nc([C@H](O)C4CC(F)(F)C4)cnc32)cc1 [Compound 46A] = > 7.00

Field pIC50 (system: 15-PGDH/HPGD (Homo sapiens, UniProt P15428)) for entry CN(C)C(=O)c1cccc(-n2ncc3cc([C@@H](O)COC4CCC4)cnc32)c1 [Compound 111A] = > 7.00

Field pIC50 (system: 15-PGDH/HPGD (Homo sapiens, UniProt P15428)) for entry O=C(O)c1ccc(-n2ncc3cc([C@@H](O)COC4CCCC4)cnc32)cc1 [Compound 89A] = > 7.00

Field pIC50 (system: 15-PGDH/HPGD (Homo sapiens, UniProt P15428)) for entry COC(C)(C)CC[C@H](O)c1cnc2c(cnn2-c2cccc(-c3nnc[nH]3)c2)c1 [Compound 55A] = > 7.00

Field pIC50 (system: 15-PGDH/HPGD (Homo sapiens, UniProt P15428)) for entry CC(C)OC[C@@H](O)c1cnc2c(cnn2-c2ccc(CCCC(=O)O)cc2)c1 [Compound 66A] = > 7.00

Field pIC50 (system: 15-PGDH/HPGD (Homo sapiens, UniProt P15428)) for entry O=C(O)c1ccc(-n2ncc3cc([C@@H](O)COC4(C(F)(F)F)CCC4)cnc32)cc1 [Compound 115A] = > 7.00

Field pIC50 (system: 15-PGDH/HPGD (Homo sapiens, UniProt P15428)) for entry CC(C)C[C@@H](O)C(O)c1cnc2c(ccn2-c2cccc(-c3nnc[nH]3)c2)c1 (stereo in doubt) = > 7.00

Field pIC50 (system: 15-PGDH/HPGD (Homo sapiens, UniProt P15428)) for entry O=C(O)CCc1ccc(-n2ncc3cc([C@H](O)COC4CC4)cnc32)cc1F [Compound 86B] = > 7.00

Field pIC50 (system: 15-PGDH/HPGD (Homo sapiens, UniProt P15428)) for entry CC(C)OC[C@@H](O)c1cnc2c(cnn2-c2ccc(CCCC(=O)O)c(F)c2)c1 [Compound 77A] = > 7.00

Field pIC50 (system: 15-PGDH/HPGD (Homo sapiens, UniProt P15428)) for entry O[C@@H](COC1CCC1)c1cnc2c(cnn2-c2ccc(N3CCOCC3)cc2)c1 [Compound 76A] = 6.00 to 7.00

Field pIC50 (system: 15-PGDH/HPGD (Homo sapiens, UniProt P15428)) for entry CCOC1([C@@H](O)c2cnc3c(cnn3-c3ccc4nc(N5CCOCC5)nn4c3)c2)CC1 [Compound 62B] = 6.00 to 7.00

Field pIC50 (system: 15-PGDH/HPGD (Homo sapiens, UniProt P15428)) for entry CC(C)OC[C@H](O)c1cnc2c(ccn2-c2cccc(-c3nnc[nH]3)c2)n1 [Compound 20B] = > 7.00
